target_or_system: human mOR (Homo sapiens (Human))
Sequence (P35372 whole entry): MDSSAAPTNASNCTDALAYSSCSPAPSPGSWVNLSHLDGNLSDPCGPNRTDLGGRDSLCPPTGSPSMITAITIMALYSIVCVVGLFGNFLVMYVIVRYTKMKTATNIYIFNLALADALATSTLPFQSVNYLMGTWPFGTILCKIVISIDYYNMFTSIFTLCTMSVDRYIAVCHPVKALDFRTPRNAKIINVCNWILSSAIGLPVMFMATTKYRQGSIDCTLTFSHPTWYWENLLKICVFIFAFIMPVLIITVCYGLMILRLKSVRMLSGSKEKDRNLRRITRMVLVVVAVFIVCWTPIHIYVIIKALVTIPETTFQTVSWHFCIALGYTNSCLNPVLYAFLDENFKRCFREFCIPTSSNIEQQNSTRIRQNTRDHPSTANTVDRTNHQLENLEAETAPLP
assay_details: cell-based
pIC50: −log10 of the molar value.
The reader will find reported pIC50 values listed item by item below.

Illustrative cases are given below, each with its answer.
{"columns": ["compound", "measured_result"],
 "data": [
  ["CN(C)[C@H](CNC(=O)CC(c1ncccn1)C1(C(F)(F)F)CC1)Cc1ccc(O)cc1 (some centres unmarked)", "> 6.52"],
  ["Cc1cc(O)cc(C)c1C[C@@H](CNC(=O)CC(c1ccc(C(F)(F)F)nc1)C1(C(F)(F)F)CC1)N(C)C (some centres unmarked)", "> 6.52"],
  ["Cc1ncc(C(CC(=O)NC[C@H](Cc2c(C)cc(O)cc2C)N(C)C)C2CC2)s1 (some centres unmarked)", "> 6.52"],
  ["CNC(=O)c1ccc(C[C@@H](CNC(=O)C[C@@H](CC(C)C)c2ccccn2)N(C)C)c(C)c1", "< 5.52"]
]}

Prompt line: What value of pIC50 has been recorded for this entry: `CN(C)[C@H](CNC(=O)C[C@H](c1cccnc1)C1(C(F)(F)F)CC1)Cc1cc(F)c(O)cc1F`
Response line: > 6.52
